tested on: crabgrass; test: Test B pre/postemergence crabgrass; type: in vivo, Digitaria sanguinalis; conditions: Preemergence, Rate 125 g/ha; scale of 0 to 10 where 0 is no effect and 10 is complete control
ENDPOINT LABEL: Plant response rating, Crabgrass
Enter a number only.

# count of solved cases: 4
# CCC(C)N(C(=O)n1oc(=O)n(C(C)C)c1=O)c1ccc(F)cc1 (stereo not drawn) with crabgrass: Plant response rating, Crabgrass is 9

# `CC(C)Cn1c(=O)on(C(=O)N(c2ccc(F)cc2F)C(C)C)c1=O` with crabgrass: Plant response rating, Crabgrass is 10

# `CC(C)N(C(=O)n1oc(=O)n(CCCC#N)c1=O)c1ccccc1` with crabgrass: Plant response rating, Crabgrass is 9

# `CC(C)N(C(=O)n1oc(=O)n(CCl)c1=O)c1ccc(F)cc1F` with crabgrass: Plant response rating, Crabgrass is 0

Turning to the following compound.
# `CC(C)N(C(=O)n1oc(=O)n(CC(F)F)c1=O)c1ccccc1` with crabgrass: Plant response rating, Crabgrass is 10
